molecular target: human IL-13 (source not stated for the assay) (human, UniProt P35225 35-146, limits assumed); test: cell-based or functional assay
Sequence (P35225 35-146 limits assumed): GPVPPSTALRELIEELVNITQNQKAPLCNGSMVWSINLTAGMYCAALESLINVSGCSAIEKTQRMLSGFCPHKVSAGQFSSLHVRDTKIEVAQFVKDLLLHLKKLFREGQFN
IC50, IL-13 induced eotaxin release, n = 2 overview
Give the quantity in nM, number only.

input: Return reported IC50, IL-13 induced eotaxin release, n = 2; argument: mAb 11.18 (antibody, V domains shown) VH: QVQLVESGGGVVQPGRSLRLSCVASGFTFSSYDMHWVRQAPGKGLEWVAVIWYDGSNKYYADSVQGRFTISRDNSKNTLYLQMNSLRAEDTAVYYCTSEDSSGWYDGWFDPWGQGTLVTVSS VL: DIQMTQSPSSLSASVGDRVTITCRASQGISNYLAWYQQKPGKVPKVLIYAASTLQSGVPSRFSGSGSGTDFTLTISSLQPEDVATYYCQKYNSAPFTFGPGTKVDIK
output: 0.304

input: Okay, and mAb 731 (antibody, V domains shown, also called sc731) VH: EVQLLESGGGLVQPGGSLRLSCAASGFTFSSYAMSWVRQAPGKGLEWVSAFSGSGGSTYYADSVKGRFTISRDNSKNTLYLQMNSLRAEDTAVYYCVQDGLGPYFYNYGMDVWGQGTTVTVSS VL: SYELTQPPSVSVSPGQTASITCSGDKLGDKYACWFQQKPGQSPVLVIYHDSKRPSGIPERFSGSNSGDTATLTISGTQAMDEADYYCQAWDSSTYVFGTGTKVTVLG ?
output: 0.019

---
input: Return reported IC50, IL-13 induced eotaxin release, n = 2; argument: mAb 157 (antibody, V domains shown) VH: EVQLVESGGGLVKPGGSLRLSCAASGFTFSSYSMNWVRQAPGKGLEWVSYISTSYNYIYYADSVKGRFTISRDNAKNSLYLQMNSLRAEDTAVYYCARDQVGATLDAFDIWGQGTMVTVSS VL: DIQMTQSPSSLSASVGDRVTITCRASQGIGDDLGWYQQKPGKAPKRLIYAASSLQSGVPSRFSGSGSGTEFTLTISSLQPEDFATYYCLQHNSYPFTFGPGTRVDIK
output: 0.207

Data origin, for the record: patent US20100047253A1
